Where these numbers come from: ChEMBL document CHEMBL3632527

target.entity: Translocator protein (Homo sapiens, UniProt P30536)
Sequence (P30536 whole entry): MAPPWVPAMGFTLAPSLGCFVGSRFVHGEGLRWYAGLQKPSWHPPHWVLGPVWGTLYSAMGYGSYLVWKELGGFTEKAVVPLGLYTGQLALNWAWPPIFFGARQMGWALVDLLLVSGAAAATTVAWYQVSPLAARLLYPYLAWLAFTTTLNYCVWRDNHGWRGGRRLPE
protocol: Displacement of [3H]PK11195 from TSPO in human HEK293T cell membranes incubated for 90 mins by competition radioligand binding assay
Set-up: species or system HEK-293T
Listed molecules paired with reported Ki
endpoint.label: Ki (nM)

{"compound.structure.string": "CCN(CC)C(=O)Cn1c(-c2ccc(OC)cc2)nc2c(C)cc(C)nc21", "target.entity": "Translocator protein (Homo sapiens, UniProt P30536)", "modifier.sign": "=", "obs.value": 29.1}
{"compound.structure.string": "CCN(CC)C(=O)Cn1c(-c2ccc(OC)cc2)nc2c(C)nc(C)nc21", "target.entity": "Translocator protein (Homo sapiens, UniProt P30536)", "modifier.sign": ">", "obs.value": 10000}
{"compound.structure.string": "CCN(CC)C(=O)Cn1c(-c2ccc(OC)cc2)nc2c(C)cc(C)cc21", "target.entity": "Translocator protein (Homo sapiens, UniProt P30536)", "modifier.sign": "=", "obs.value": 224}
{"compound.structure.string": "CCN(CC)C(=O)Cn1c(-c2ccc(OC)cc2)cc2c(C)cc(C)cc21", "target.entity": "Translocator protein (Homo sapiens, UniProt P30536)", "modifier.sign": "=", "obs.value": 28.1}

----------
target.entity: Translocator protein (Homo sapiens, UniProt P30536)
protocol: Displacement of [3H]PK11195 from TSPO in human T98G cell membranes incubated for 90 mins by competition radioligand binding assay
Listed molecules paired with reported Ki
endpoint.label: Ki (nM)

{"compound.structure.string": "CCN(CC)C(=O)Cn1c(-c2ccc(OC)cc2)cc2c(C)cc(C)cc21", "endpoint.label": "Ki", "readout.units": "nM", "modifier.sign": "=", "obs.value": 806}
{"compound.structure.string": "CCN(CC)C(=O)Cn1c(-c2ccc(OC)cc2)nc2c(C)cc(C)cc21", "endpoint.label": "Ki", "readout.units": "nM", "modifier.sign": "=", "obs.value": 398}
{"compound.structure.string": "CCN(CC)C(=O)Cn1c(-c2ccc(OC)cc2)nc2c(C)nc(C)nc21", "endpoint.label": "Ki", "readout.units": "nM", "modifier.sign": ">", "obs.value": 10000}
{"compound.structure.string": "CCN(CC)C(=O)Cn1c(-c2ccc(OC)cc2)nc2c(C)cc(C)nc21", "endpoint.label": "Ki", "readout.units": "nM", "modifier.sign": "=", "obs.value": 144}
